system: transgenic Arabidopsis plants (T2) SoHPPD F363I (short); assay: Greenhouse spray test, injury evaluation; type: in vivo, Arabidopsis thaliana; conditions: Event C; 1.56 g ai/ha; 14 DAT
# key: entry, value: Injury

Please review the entries below; each comes with its answer.
compound	assayed_target	Injury
CS(=O)(=O)c1ccc(C(=O)C2C(=O)CCCC2=O)c([N+](=O)[O-])c1 [Inhibitor 2]	transgenic Arabidopsis plants (T2) SoHPPD F363I (short)	5%
CSc1c(C(F)(F)F)ccc(C(=O)Nc2nnnn2C)c1Cl [Inhibitor 11]	transgenic Arabidopsis plants (T2) SoHPPD F363I (short)	8%
Cc1c(C(=O)c2cnn(C)c2O)ccc(S(C)(=O)=O)c1C1=NOCC1 [Inhibitor 1]	transgenic Arabidopsis plants (T2) SoHPPD F363I (short)	0%

In: # lookup: Injury of CSc1c(Cl)cc(F)c(C(=O)Nc2nnnn2C)c1Cl [Inhibitor 7]
Out: 0%

* * *

biological target: Scenedesmus Short HPPD (Seq ID: 4) (Tetradesmus obliquus, UniProt A0A383WMN4, DEL398-433/N195D); assay: In vitro HPPD activity assay; assay type: biochemical; details: normalized on Arabidopsis wild-type HPPD (SEQ ID NO:42)
Sequence (A0A383WMN4 entry or part of it N195D/DEL398-433): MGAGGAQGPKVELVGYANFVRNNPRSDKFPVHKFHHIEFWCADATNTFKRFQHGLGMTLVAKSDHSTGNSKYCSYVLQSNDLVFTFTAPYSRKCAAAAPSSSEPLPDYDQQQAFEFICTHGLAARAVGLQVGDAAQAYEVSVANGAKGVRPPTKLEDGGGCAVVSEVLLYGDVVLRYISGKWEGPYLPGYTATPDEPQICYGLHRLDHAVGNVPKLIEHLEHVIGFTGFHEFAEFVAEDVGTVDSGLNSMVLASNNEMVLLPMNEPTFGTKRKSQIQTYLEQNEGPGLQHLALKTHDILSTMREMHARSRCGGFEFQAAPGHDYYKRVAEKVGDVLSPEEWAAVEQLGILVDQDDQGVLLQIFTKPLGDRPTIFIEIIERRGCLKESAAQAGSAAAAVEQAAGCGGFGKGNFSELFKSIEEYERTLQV
Outcome label depends on TI (normalized tolerance index) relative to 1: at/above gives YES, below gives NO.

molecule	category
CC[S+]([O-])c1c(Cl)cc(F)c(C(=O)Nc2nnnn2C)c1Cl (centres unmarked)	YES
CCS(=O)(=O)c1cc(C(F)(F)F)ccc1C1=C(O)c2ncccc2C(C)(C)S1(=O)=O	YES
CC(=O)N(C)c1c(Cl)ccc(C2=C(O)c3ncccc3C(C)(C)S2(=O)=O)c1Cl	YES
CCSc1ccc(Cl)c(C(=O)Nc2nnnn2C)c1Cl	NO

Let us examine a further case.
In: Quick check: does CS(=O)(=O)c1ccc(C(=O)C2C(=O)CCCC2=O)c([N+](=O)[O-])c1 have TI (normalized tolerance index) greater than or equal to 1?
Out: NO

* * *

system: transgenic Arabidopsis plants (T2) SoHPPD I419V (short); assay: Greenhouse spray test, injury evaluation; format: in vivo, Arabidopsis thaliana; conditions: Event H; 25 g ai/ha; 14 DAT
readout_kind: Injury (%)
The reply should be a number in %, with the unit left off.

In: Any idea what its Injury is? The compound is CSc1c(Cl)cc(F)c(C(=O)Nc2nnnn2C)c1Cl
Out: 93

In: What do we get for CS(=O)(=O)c1ccc(C(=O)C2C(=O)CCCC2=O)c([N+](=O)[O-])c1 ?
Out: 58

In: Same for CSc1c(C(F)(F)F)ccc(C(=O)Nc2nnnn2C)c1Cl
Out: 100

In: How about this compound: Cc1c(C(=O)c2cnn(C)c2O)ccc(S(C)(=O)=O)c1C1=NOCC1
Out: 13

* * *

test system: SoHPPD A318R, L350M; assay: In vitro HPPD activity assay; type: biochemical, Scenedesmus obliquus; details: normalized on Arabidopsis wild-type HPPD (SEQ ID NO:42)
# reported TI (normalized tolerance index); entries follow
Number only, no unit.

In: Quick one: TI (normalized tolerance index) for CCSc1ccc(Cl)c(C(=O)Nc2nnnn2C)c1Cl ?
Out: 0.2

In: CS(=O)(=O)c1ccc(C(=O)C2C(=O)CCCC2=O)c([N+](=O)[O-])c1 , same question.
Out: 0.1

In: Consider next the molecule CC[S+]([O-])c1c(Cl)cc(F)c(C(=O)Nc2nnnn2C)c1Cl (centres unmarked) in the same way.
Out: 0.2

In: And for CC(=O)N(C)c1c(Cl)ccc(C2=C(O)c3ncccc3C(C)(C)S2(=O)=O)c1Cl ?
Out: 0.2

In: Moving on to the next molecule: CCS(=O)(=O)c1cc(C(F)(F)F)ccc1C1=C(O)c2ncccc2C(C)(C)S1(=O)=O
Out: 0.3

* * *

tested on: transgenic Arabidopsis plants (T2) SoHPPD I419V (short); assay: Greenhouse spray test, injury evaluation; format: in vivo, Arabidopsis thaliana; details: Event G; 1.56 g ai/ha; 14 DAT
Catalogue of Injury values
Give just the number in %; leave the unit off.

# count of solved cases: 3
molecule	Injury / %
Cc1c(C(=O)c2cnn(C)c2O)ccc(S(C)(=O)=O)c1C1=NOCC1 [Inhibitor 1]	5
CS(=O)(=O)c1ccc(C(=O)C2C(=O)CCCC2=O)c([N+](=O)[O-])c1 [Inhibitor 2]	0
CSc1c(C(F)(F)F)ccc(C(=O)Nc2nnnn2C)c1Cl [Inhibitor 11]	58

Moving on to another molecule below.
In: What measured Injury goes with CSc1c(Cl)cc(F)c(C(=O)Nc2nnnn2C)c1Cl [Inhibitor 7] ?
Out: 0

* * *

target: Scenedesmus HPPD (Seq ID: 2) (Tetradesmus obliquus, UniProt A0A383WMN4, N195D); assay: In vitro HPPD activity assay; format: biochemical; details: normalized on Arabidopsis wild-type HPPD (SEQ ID NO:42)
Sequence (A0A383WMN4 entry or part of it N195D): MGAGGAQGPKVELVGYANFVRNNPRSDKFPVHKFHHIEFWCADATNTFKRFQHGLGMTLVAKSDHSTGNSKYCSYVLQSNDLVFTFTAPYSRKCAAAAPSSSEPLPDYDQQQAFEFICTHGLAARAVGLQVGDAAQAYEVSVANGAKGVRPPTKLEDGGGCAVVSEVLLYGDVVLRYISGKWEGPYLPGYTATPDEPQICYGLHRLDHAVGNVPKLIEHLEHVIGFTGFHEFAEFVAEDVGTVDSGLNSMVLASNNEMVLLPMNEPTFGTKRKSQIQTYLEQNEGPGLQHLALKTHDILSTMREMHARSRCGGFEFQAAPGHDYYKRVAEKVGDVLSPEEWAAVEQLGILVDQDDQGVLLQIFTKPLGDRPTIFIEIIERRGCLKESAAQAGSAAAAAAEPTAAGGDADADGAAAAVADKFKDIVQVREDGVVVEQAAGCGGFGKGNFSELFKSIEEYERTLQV
Catalogue of compounds with associated TI (normalized tolerance index)
Output spec: single numeric token, no unit.

compound	TI (normalized tolerance index)
CCSc1ccc(Cl)c(C(=O)Nc2nnnn2C)c1Cl [Inhibitor 8]	0.1
CCS(=O)(=O)c1cc(C(F)(F)F)ccc1C1=C(O)c2ncccc2C(C)(C)S1(=O)=O [Inhibitor 4]	0.1
CC(=O)N(C)c1c(Cl)ccc(C2=C(O)c3ncccc3C(C)(C)S2(=O)=O)c1Cl [Inhibitor 5]	0.0
CS(=O)(=O)c1ccc(C(=O)C2C(=O)CCCC2=O)c([N+](=O)[O-])c1 [Inhibitor 2]	0.5

Field: next compound
In: Hi! What's the reported TI (normalized tolerance index) for CC[S+]([O-])c1c(Cl)cc(F)c(C(=O)Nc2nnnn2C)c1Cl (centres unmarked) [Inhibitor 9] on Scenedesmus HPPD (Seq ID: 2) (Tetradesmus obliquus, UniProt A0A383WMN4, N195D)?
Out: 0.1

* * *

system: SoHPPD Q317H (short); experiment: In vitro HPPD activity assay; type: biochemical, Scenedesmus obliquus; conditions: normalized on Arabidopsis wild-type HPPD (SEQ ID NO:42)
Threshold check on TI (normalized tolerance index): at or above 0.5 gives YES, strictly below gives NO.

# count of solved cases: 3
compound	category
CS(=O)(=O)c1ccc(C(=O)C2C(=O)CCCC2=O)c([N+](=O)[O-])c1	NO
CC(=O)N(C)c1c(Cl)ccc(C2=C(O)c3ncccc3C(C)(C)S2(=O)=O)c1Cl	NO
CCS(=O)(=O)c1cc(C(F)(F)F)ccc1C1=C(O)c2ncccc2C(C)(C)S1(=O)=O	YES

Moving on to another compound below.
In: Say whether CC[S+]([O-])c1c(Cl)cc(F)c(C(=O)Nc2nnnn2C)c1Cl (centres unmarked) shows TI (normalized tolerance index) of 0.5 or more.
Out: YES

* * *

tested on: transgenic Arabidopsis plants (T2) SoHPPD I419V (short); test: Greenhouse spray test, injury evaluation; format: in vivo, Arabidopsis thaliana; settings: Event H; 1.56 g ai/ha; 14 DAT
This listing pairs molecules with measured Injury.
Write the number in % without appending the unit.

CSc1c(C(F)(F)F)ccc(C(=O)Nc2nnnn2C)c1Cl 43

In: Entry under review: CSc1c(Cl)cc(F)c(C(=O)Nc2nnnn2C)c1Cl . Reported Injury?
Out: 5

In: And the next one, CS(=O)(=O)c1ccc(C(=O)C2C(=O)CCCC2=O)c([N+](=O)[O-])c1 ?
Out: 5
